Here the recorded TGI is given for each entry.
system: OVCAR-8 ovarian; experiment: NCI tumour cell line growth inhibition, 48 h
QUANTITY KIND: TGI

• COc1ccc2nc(-c3cc(-c4cc(OC)c(OC)c(OC)c4)n[nH]3)[nH]c2c1 = 3.2 µM
• COc1ccccc1C1SCC(=O)N1c1ccc(-n2c(-c3ccccc3)nc3ccccc3c2=O)cc1 (stereo not drawn) = > 100 µM
• Cc1ccc(NC(=O)C(=O)C2C(=O)N(c3ccccc3)N=C2N)cc1C (stereo not drawn) = > 100 µM
• O=c1/c(=C/c2cccc([N+](=O)[O-])c2)sc2nc3ccccc3n12 = > 100 µM
• CC[C@H](C)[C@H]1NC(=O)[C@@H](N[C@](C)(O)[C@@H](N)CC(C)C)[C@@H](C)OC(=O)[C@H](Cc2ccc(OC)cc2)N(C)C(=O)[C@@H]2CCCN2C(=O)[C@H](CC(C)C)NC(=O)[C@@H](C)C(=O)[C@H](C(C)C)OC(=O)C[C@@H]1O = 0.355 µM
• CC(=O)[CH-]C(=O)c1ccccc1.CC(=O)[CH-]C(=O)c1ccccc1.CC[O-].CC[O-].[Zr+4] = > 100 µM
• CC(=O)N1N=C2/C(=C/c3ccccc3)CC(C)CC2C1c1ccccc1 (stereo not drawn) = 50.6 µM
• CC1=NN(C(=O)CC(=O)Nc2ccccc2C)C(=O)C1N=Nc1ccc(C(=O)O)cc1 (stereo not drawn) = > 100 µM
